assay: Cmax in ICR mouse at 10 mg/kg, po measured up to 24 hrs by LC-MS/MS analysis; assay type: ADME, organism-based; design: route oral, dose 10 mg/kg, time <=24; conditions: in vivo
Lab note - cut at 300 ng/mL for Cmax: 1 if strictly below, -1 if not.

Incoming: Field: below-cutoff. Rule: recorded Cmax strictly less than 300 ng/mL. Subject: CCN1CCN(c2cc(Nc3cc(C)[nH]n3)nc(N[C@H]3CCN(C(=O)c4ccc(Cl)cc4F)C3)n2)CC1
Outgoing: -1

Incoming: Then CCC(=O)n1nc(Nc2cc(N3CCN(CC)CC3)nc(N[C@H]3CCN(C(=O)c4ccc(Cl)cc4F)C3)n2)cc1C ?
Outgoing: 1

Incoming: Then CCOC(=O)n1nc(C)cc1Nc1cc(N2CCN(CC)CC2)nc(N[C@H]2CCN(C(=O)c3ccc(Cl)cc3F)C2)n1 ?
Outgoing: -1

Incoming: Then CCN1CCN(c2cc(Nc3cc(C)nn3C(=O)C(C)(C)C)nc(N[C@H]3CCN(C(=O)c4ccc(Cl)cc4F)C3)n2)CC1 ?
Outgoing: 1

Incoming: Then CCC(=O)n1nc(C)cc1Nc1cc(N2CCN(CC)CC2)nc(N[C@H]2CCN(C(=O)c3ccc(Cl)cc3F)C2)n1 ?
Outgoing: -1

Incoming: Then CCN1CCN(c2cc(Nc3cc(C)nn3C(=O)OC(C)(C)C)nc(N[C@H]3CCN(C(=O)c4ccc(Cl)cc4F)C3)n2)CC1 ?
Outgoing: -1

Incoming: Then CCOC(=O)n1nc(Nc2cc(N3CCN(CC)CC3)nc(N[C@H]3CCN(C(=O)c4ccc(Cl)cc4F)C3)n2)cc1C ?
Outgoing: 1
